# measurement.description: TNF-a-driven NF-kB reporter inhibitors, primary screen, selectivity assay for NOD1/NOD2 signaling inhibitor project, cell-based, HEK293T NF-kB-Luc, luminescence (AID 1852)
# measurement.conditions: TNF-a induced, 14 h, at 4 µM
About 1,100 (44%) of roughly 2,500 compounds were called active.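 How the source made its calls: active means inhibition above 50% at 4 µM in the single-point screen; inactive means inhibition of 50% or less.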 The set was probably picked from earlier hits. The list shows a part of the results.
Valid outcomes are listed here; reply with one: 1 = active, -1 = inactive

| molecule | assigned.category |
| --- | --- |
| O=C(c1ccc(Cl)cc1)C1CCCN(Cc2cccc3ncccc23)C1 (stereo not given) | -1 |
| CN1/C(=C\C=C\C2=[N+](C)c3ccc4ccccc4c3C2(C)C)C(C)(C)c2ccccc21 | 1 |
| CCC(C)C(NC(=O)CCCNC(=O)CCC(=O)OC1O[C@H]2OC3(C)CC[C@H]4[C@H](C)CCC(C1C)C24OO3)C(=O)O (stereo not given in full) | 1 |

Ask: Per the assay record, what outcome was assigned to `O=c1[nH]c(=O)n(-c2ccccc2F)c(O)c1/C=C1\C=Nc2ccccc21` ?
Reply: -1

Ask: Per the assay record, what outcome was assigned to `CCN1/C(=C\C=C\C2=[N+](CC)c3ccccc3C2(C)C)C(C)(C)c2ccccc21` ?
Reply: 1

###

# measurement.description: TNF-a-driven NF-kB reporter inhibitors, primary screen, selectivity assay for NOD1/NOD2 signaling inhibitor project, cell-based, HEK293T NF-kB-Luc, luminescence (AID 1852)
# measurement.conditions: TNF-a induced, 14 h, at 4 µM
Out of some 2,500 compounds screened, about 1,100 (44%) were called active.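 Rule for the calls: active = inhibition above 50% at 4 µM in the single-point screen; inactive = inhibition of 50% or less.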 The set was probably picked from earlier hits. This is one part of the list.
Valid outcomes are listed here; reply with one: 1 (active), -1 (inactive)

| compound | assigned.category |
| --- | --- |
| C[C@@H]1O[C@@H](O[C@H]2C[C@@H](O)[C@]3(CO)[C@H]4[C@H](O)C[C@]5(C)[C@@H](C6=CC(=O)OC6)CC[C@]5(O)[C@@H]4CC[C@]3(O)C2)[C@H](O)[C@H](O)[C@H]1O | 1 |

Ask: Per the assay record, what outcome was assigned to CCCCN=C[C@]12CCC(O)CC1(O)CCC1[C@@H]2CC[C@]2(C)[C@H](C3C=CC(=O)O3)CCC12O (stereo partly drawn) ?
Reply: 1

Ask: Per the assay record, what outcome was assigned to `CC(C)N1C(=O)/C(=C/C=C/c2ccco2)C(=O)N(Cc2ccco2)C1=O` ?
Reply: -1

Ask: Per the assay record, what outcome was assigned to `Cc1ccccc1-n1c(O)c(/C=C2/C(c3ccccc3)=Nc3ccccc32)c(=O)[nH]c1=O` ?
Reply: -1

Ask: Per the assay record, what outcome was assigned to `O=c1c2ccccc2nc(/C=C/c2ccc([N+](=O)[O-])o2)n1-c1ccc(O)cc1` ?
Reply: 1

Ask: Per the assay record, what outcome was assigned to `Cc1cc(C)cc(N2C(=O)NC(=O)/C(=C/c3cccn3-c3ccc(Cl)cc3)C2=O)c1` ?
Reply: -1

Ask: Per the assay record, what outcome was assigned to CCC(C)NC(=O)CCC(=O)OC1O[C@H]2OC3(C)CC[C@H]4[C@H](C)CCC(C1C)C24OO3 (stereo partly drawn) ?
Reply: 1

Ask: Per the assay record, what outcome was assigned to `Cc1ccc(N2C(=O)NC(=O)/C(=C\C=C\c3ccco3)C2=O)cc1` ?
Reply: -1

###

# measurement.description: TNF-a-driven NF-kB reporter inhibitors, primary screen, selectivity assay for NOD1/NOD2 signaling inhibitor project, cell-based, HEK293T NF-kB-Luc, luminescence (AID 1852)
# measurement.conditions: TNF-a induced, 14 h, at 4 µM, stronger effect = higher value
About 1,100 (44%) of roughly 2,500 compounds were called active. So high a share suggests a set chosen from earlier hits. The list shows a part of the results.
measured.parameter: inhibition (%)
Answer in %, number only, no unit symbol.

| molecule | endpoint.result |
| --- | --- |
| CCCCCCn1c(=O)c(C(=O)Nc2cnccn2)c(O)c2ccccc21 | 52.2 |
| C=CCn1c(O)c(C(C)=NCc2cc(OC)cc(OC)c2)c(=O)[nH]c1=O | 16 |
| CC1=CC(=Cc2sc3ccccc3[n+]2C)C=C(C)O1 | 43.4 |
| CCCCn1c(=O)c(C(=O)Nc2cnccn2)c(O)c2ccccc21 | 3.4 |
| CN1CCN(c2ncnc3ccc(Br)cc23)CC1 | 33 |
| CCCCCn1c(=O)c(C(=O)Nc2ccccc2S(N)(=O)=O)c(O)c2ccccc21 | -7 |
| O=c1nc(/C=C/c2ccc(Cl)cc2Cl)cc(C(F)(F)F)[nH]1 | -105 |
| CCCCCn1c(=O)c(C(=O)Nc2cnccn2)c(O)c2ccccc21 | 53.4 |
| Cc1nc2c(=O)n(C)c(=O)nc-2n(C)n1 | 99.4 |
| C=C1C(=O)O[C@@H]2C[C@@H](C)[C@@H]3C4OC4C(=O)[C@@]3(C)[C@@H](O)[C@H]12 (stereo partly specified) | 96.7 |

Next, consider the following molecule.
Ask: // lookup inhibition for `CN1C(=O)/C(=C/c2cccn2-c2ccc3ccccc3c2)C(=O)NC1=S`
Reply: 5.6

###

# measurement.description: TNF-a-driven NF-kB reporter inhibitors, primary screen, selectivity assay for NOD1/NOD2 signaling inhibitor project, cell-based, HEK293T NF-kB-Luc, luminescence (AID 1852)
# measurement.conditions: TNF-a induced, 14 h, at 4 µM
About 1,100 (44%) of roughly 2,500 compounds were called active.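 How the source made its calls: active means inhibition above 50% at 4 µM in the single-point screen; inactive means inhibition of 50% or less.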 So high a share suggests a set chosen from earlier hits. Some of the results follow.
Valid outcomes are listed here; reply with one: true (active), false (inactive)

The examples below pair each entry with its known result.
| molecule | assigned.category |
| --- | --- |
| C[C@H]1CCC[C@@H](O)CCC/C=C/c2cc(O)cc(O)c2C(=O)O1 | true |
| CC(=O)OC[C@]12CCC(C)=C[C@H]1O[C@@H]1[C@H](O)[C@@H](OC(C)=O)[C@@]2(C)[C@]12CO2 | true |
| COC1CC(OC2CCC3(C)C(CCC4C3CCC3(C)C(C5=CC(=O)OC5)C(OC(C)=O)CC43O)C2)OC(C)C1OC1OC(COC2OC(CO)C(O)C(O)C2O)C(O)C(O)C1O (centres undefined) | true |

Ask: Per the assay record, what outcome was assigned to `O=C1NC(=O)N(Cc2ccco2)C(=O)/C1=C/C=C/c1ccco1` ?
Reply: false

###

# measurement.description: TNF-a-driven NF-kB reporter inhibitors, primary screen, selectivity assay for NOD1/NOD2 signaling inhibitor project, cell-based, HEK293T NF-kB-Luc, luminescence (AID 1852)
# measurement.conditions: TNF-a induced, 14 h, at 4 µM
Hit rate of the full screen: of about 2,500 compounds, about 1,100 (44%) were called active.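 The calls were made as follows: active = inhibition above 50% at 4 µM in the single-point screen; inactive = inhibition of 50% or less.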 The set was probably picked from earlier hits. Some of the results follow.
Valid outcomes are listed here; reply with one: T = active, F = inactive

| molecule | assigned.category |
| --- | --- |
| O=C1NC(=O)N(c2ccccc2)C(=O)/C1=C/C=C/c1ccco1 | F |
| O=c1c2ccccc2nc(/C=C/c2ccc3c(c2)OCO3)n1-c1ccccc1 | F |
| C[C@]12CCC3C(CCC4=CC(O)CC[C@@]43/C=N/O)C1(O)CCC2C1=CC(=O)OC1 (some centres undefined) | T |
| O=c1c2ccccc2nc(/C=C/c2ccccc2O)n1-c1ccccc1O | T |
| CCn1nc(-c2ccccc2)nc2c(=O)n(C)c(=O)nc1-2 | T |
| O=C1NC(=O)N(c2ccccc2)C(=O)/C1=C\C=C\c1ccccc1 | F |
| CC[C@@]1(O)C(=O)OCc2c1cc1n(c2=O)Cc2cc3ccccc3nc2-1 | T |
| CC(=O)c1cn(Cc2ccccc2F)c2ccccc12 | F |

Ask: Per the assay record, what outcome was assigned to `COc1ccc(-n2c(O)c(/C=C3\C=Nc4ccc(Br)cc43)c(=O)[nH]c2=O)cc1` ?
Reply: F
